target: GST-MAPKAP-K3, Q16644
Sequence (Q16644 whole entry, looked up): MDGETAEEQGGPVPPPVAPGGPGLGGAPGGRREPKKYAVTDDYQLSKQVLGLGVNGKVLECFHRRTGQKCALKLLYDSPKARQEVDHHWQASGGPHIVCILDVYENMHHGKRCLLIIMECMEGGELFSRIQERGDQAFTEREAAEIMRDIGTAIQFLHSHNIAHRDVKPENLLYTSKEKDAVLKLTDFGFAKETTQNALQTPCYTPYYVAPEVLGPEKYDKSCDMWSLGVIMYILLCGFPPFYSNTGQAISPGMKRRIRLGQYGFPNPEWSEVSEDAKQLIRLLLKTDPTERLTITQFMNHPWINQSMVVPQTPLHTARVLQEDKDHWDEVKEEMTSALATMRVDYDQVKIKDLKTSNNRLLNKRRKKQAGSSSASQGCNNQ
Catalogue of proteins with associated rate of phosphorylation of substrate (1 µM) relative to MBP (% of rate with MBP)
outcome-measure: rate of phosphorylation of substrate (1 µM) relative to MBP (% of rate with MBP)

{"columns": ["protein", "test-value"],
 "data": [
  ["rat GST-SAPK3 (protein) MSSPPPARKGFYRQEVTKTAWEVRAVYQDLQPVGSGAYGAVCSAVDSRTGNKVAIKKLYRPFQSELFAKRAYRELRLLKHMRHENVIGLLDVFTPDETLDDFTDFYLVMPFMGTDLGKLMKHETLSEDRIQFLVYQMLKGLKYIHAAGVIHRDLKPGNLAVNEDCELKILDFGLARQADSEMTGYVVTRWYRAPEVILNWMRYTQTVDIWSVGCIMAEMITGKILFKGNDHLDQLKEIMKVTGTPPPEFVQKLQSAEAKNYMEGLPELEKKDFASVLTNASPQAVNLLEKMLVLDAEQRVTAAEALAHPYFESLRDTEDEPKAQKYDDSFDDVDRTLEEWKRVTYKEVLSFKPPRQLGARVPKETAL", 20],
  ["human GST-SAPK4 (protein) MSLIRKKGFYKQDVNKTAWELPKTYVSPTHVGSGAYGSVCSAIDKRSGEKVAIKKLSRPFQSEIFAKRAYRELLLLKHMQHENVIGLLDVFTPASSLRNFYDFYLVMPFMQTDLQKIMGMEFSEEKIQYLVYQMLKGLKYIHSAGVVHRDLKPGNLAVNEDCELKILDFGLARHADAEMTGYVVTRWYRAPEVILSWMHYNQTVDIWSVGCIMAEMLTGKTLFKGKDYLDQLTQILKVTGVPGTEFVQKLNDKAAKSYIQSLPQTPRKDFTQLFPRASPQAADLLEKMLELDVDKRLTAAQALTHPFFEPFRDPEEETEAQQPFDDSLEHEKLTVDEWKQHIYKEIVNFSPIARKDSRRRSGMKL", 18],
  ["human GST-SAPK2b (protein) MSGPRAGFYRQELNKTVWEVPQRLQGLRPVGSGAYGSVCSAYDARLRQKVAVKKLSRPFQSLIHARRTYRELRLLKHLKHENVIGLLDVFTPATSIEDFSEVYLVTTLMGADLNNIVKCQALSDEHVQFLVYQLLRGLKYIHSAGIIHRDLKPSNVAVNEDCELRILDFGLARQADEEMTGYVATRWYRAPEIMLNWMHYNQTVDIWSVGCIMAELLQGKALFPGSDYIDQLKRIMEVVGTPSPEVLAKISSEHARTYIQSLPPMPQKDLSSIFRGANPLAIDLLGRMLVLDSDQRVSAAEALAHAYFSQYHDPEDEPEAEPYDESVEAKERTLEEWKELTYQEVLSFKPPEPPKPPGSLEIEQ", 66],
  ["MalE-Mpk2, the Xenopus homologue of SAPK2a (protein) MSSNQSYVFYRQELNKTLWEVPDRYQNLTPVGSGAYGSVCSSFDTRTALRIAVKKLSRPFQSIIHAKRTYRELRLLKHMKHENVIGLLDVFSPAKSFEEFNDVYLVTHLMGADLNNIVKCQKLTDDHVQFLIYQILRGLKYIHSAGIIHRDLKPSNLAVNEDCELKILDFGLARHTDEEMTGYVATRWYRAPEIMLNWMHYNQTVDIWSVGCIMAELLTGRTLFPGTDHIDQLKLILRLVGTPEPELLQKISSEAARNYIQSLPYMPKMNFEDVFLGANPQAVDLLEKMLVLDTDKRITAAEALAHSYFAQYHDPDDEPIAEPYDQSFESRELDIEEWKRLTYEEVTCFVPPPLDSEEMES", 87]
]}

Reference source: patent US6617117
